Target: T1, human myostatin (human, UniProt O14793 267-375, biotinylated in selections and radioactive assays (site not stated))
T1 construct: Phage ELISA used both unbiotinylated and biotinylated myostatin; also called biotinylated human myostatin; myostatin-biotin
T1 sequence (looked up): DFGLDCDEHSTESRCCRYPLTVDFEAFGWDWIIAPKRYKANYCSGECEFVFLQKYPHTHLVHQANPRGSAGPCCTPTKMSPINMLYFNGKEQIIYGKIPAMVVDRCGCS
Assay: radioactive equilibrium binding assay
Items are presented alongside their recorded B max.
Expressed in %, but write only the number.

# BINDER, OBS_VALUE
rows = [
    ("39885-D8 (K9R) (designed binder, group M1-A; K9R; also called M5-2 (clone ID)) MTIPEIIIRVRGTQVVGSDMTVIVEFTNPLKETLRNVWVHLDGPGVTRPMKKMFPAIPMDHKVQWEEVVRPWVSGHRKLIASMPQLFHIHVYGELDVQIQRRDYKDDDDK", 57.6),
]

[in] Which measured B max value corresponds to 39908-F8 (K52R) (designed binder, group M1-A50; V91L, K52R) MTIPEIIIKVRGTQVVGSDMTVIVEFTNPFKETLRSVWVHLDGPGVTRPMKRMFREIPPETTVQWEEVVRPWVSGHRKLIASMRTQYLIHLYGELDVQIQRRDYKDDDDK ?
[out] 45.7

[in] Record request: B max value, item 39633-B3 (designed binder, group M1-A50; V91L) MTIPEIIIKVRGTQVVGSDMTVIVEFTNPLSQTLSAVWVHLDGPGVTRPMKKMFREIPPKTTVQWEEVVRPWVSGHRKLIASMRTQYLIHLYGELDVQIQRRDYKDDDDK
[out] 6.14

[in] Recorded B max for 39633-E2 (designed binder, group M1-A50; V91L) MTIPEIIIKVRGTQVVGSDMTVIVEFSNPFKETLRNVWVHLDGPGVTRPMKKMFCEVRPNSVVQWEEVVRPWVSGHRKLIASMRTQYLIHLYGELDVQIQRRDYKDDDDK , please?
[out] 21
